Field: Residual ratio. Provide a value for each of the molecules that follow.
Test: Photochromic property of photochromic laminate made by coating method
Type: physicochemical
Conditions: laminate by coating method; A96/A0 x 100 after 96 hours accelerated degradation, xenon weather meter X25
Description: First, the photochromic compound obtained in Example 1, a photoinitiator, and a polymerizable compound were mixed to obtain a curable composition. The polymerizable compound was a combination of the following radical polymerizable monomers: […] The resulting photochromic laminates were evaluated by the below-mentioned methods. • (1) Photochromic property • [1] […]
Dear colleague, please send the value followed by its unit.

{"molecule": "CCCC1(CC)c2cc(C)ccc2-c2c1c1c(c3cc(OC)c(-c4ccc(N5CCOCC5)cc4)cc23)OC(c2ccc(C)cc2)(c2ccc(N(C)c3ccccc3)cc2)C=C1 (stereo not drawn) [Formula (84-1)]", "Residual ratio": "62%"}

The following molecules each have a reported value; give each one's Residual ratio.
1. CCCC1(CC)c2ccccc2-c2c1c1c(c3cc(OC)c(-c4c(OC)cc(OC)cc4OC)cc23)OC(c2ccc(OC)cc2)(c2ccc(N(c3ccccc3)c3ccccc3)cc2)C=C1 (stereo not drawn) [Formula (78-2)]
2. CCCCCCC1(CC)c2ccccc2-c2c1c1c(c3cc(OC)ccc23)OC(c2ccc(C)cc2)(c2ccc(N(C)c3ccccc3)cc2)C=C1 (stereo not drawn) [Formula (7-4)]
3. CCCCCC1(CCCC)c2ccccc2-c2c1c1c(c3cc(OC)c(N4CCCc5ccccc54)cc23)OC(c2ccc(OC)cc2)(c2ccc(OCCC)cc2)C=C1 (stereo not drawn) [Formula (16-1)]
4. CCC1(C)c2cc(OC)ccc2-c2c1c1c(c3cc(OC)c(Sc4c(C)cccc4C)cc23)OC(c2ccc(OC)cc2)(c2ccc(N3CCOCC3)cc2)C=C1 (stereo not drawn) [Formula (74-2)]
5. CCCCCCC1(C)c2cc(OC(F)(F)F)ccc2-c2c1c1c(c3cc(OC)ccc23)OC(c2ccc(OC)cc2)(c2ccc(OC)cc2)C=C1 (stereo not drawn) [Formula (90-1)]

64%
60%
59%
64%
64%

====

test: Solubility of photochromic compound in polymerizable compounds; type: physicochemical; design: key: 1: No haze is seen when checked under transmission of light, and the sample is completely dissolved.; 2: A very thin haze is seen to the extent that it can be seen under transmission of light.; 3: A thin haze that can be seen under transmission of light is seen.; 4: A haze can be seen even without transmission of light; conditions: 35 µmol/g in radical polymerizable compound composition of Example 21, 65 to 70°C; head reads 60 min in Tables 8 to 14
measurement kind: Dissolution for 1 hour
Numbers only.

Some solved cases for reference:
{"compound": "COc1ccc(C2(c3ccc(OC)cc3)C=Cc3c4c(c5ccc(OC)cc5c3O2)-c2ccc(OC(F)(F)F)cc2C4(C)C)cc1 [Formula (H), reference compound]", "numeric readout": 2}
{"compound": "CCCCC1(CC)c2cc(N(C)c3ccccc3)ccc2-c2c1c1c(c3cc(OC)c(OC)cc23)OC(c2ccc(OC)cc2)(c2ccc(OCCC)cc2)C=C1 (stereo not drawn)", "numeric readout": 1}
{"compound": "CCC1(C)c2ccccc2-c2c1c1c(c3cc(OC)c(N(C)c4ccccc4)cc23)OC(c2ccc(OC)cc2)(c2ccc(OC)cc2)C=C1 (stereo not drawn)", "numeric readout": 1}
{"compound": "CCCOc1ccc(C2(c3ccc(OC)cc3)C=Cc3c4c(c5cc(OC)c(OC)cc5c3O2)-c2ccc(N(C)c3ccccc3)cc2C4(CC)CCC)cc1 (stereo not drawn)", "numeric readout": 1}
{"compound": "CCCCCCCCCCCC1(C)c2ccccc2-c2c1c1c(c3cc(OC)c(N4CCOCC4)cc23)OC(c2ccc(OC)cc2)(c2ccc(OC)cc2)C=C1 (stereo not drawn)", "numeric readout": 1}

So what does the record say about Dissolution for 1 hour for CCCCC1(C(C)CC)c2ccccc2-c2c1c1c(c3cc(OC)c(N4CCOCC4)cc23)OC(c2ccc(OC)cc2)(c2ccc(OC)cc2)C=C1 (stereo not drawn) ? 1

====

test: Solubility of photochromic compound in polymerizable compounds; assay type: physicochemical; design: key: 1: No haze is seen when checked under transmission of light, and the sample is completely dissolved.; 2: A very thin haze is seen to the extent that it can be seen under transmission of light.; 3: A thin haze that can be seen under transmission of light is seen.; 4: A haze can be seen even without transmission of light; settings: 35 µmol/g in radical polymerizable compound composition of Example 21, 65 to 70°C, stirring and ultrasonic irradiation
Field: Dissolution for 30 min. Provide a value for each of the molecules that follow.
Numbers only.

{"molecule": "COc1ccc(C2(c3ccc(OC)cc3)C=Cc3c4c(c5cc(N6CCOCC6)c(OC)cc5c3O2)-c2ccccc2C42CCCCCCC2)cc1 [Formula (D), reference compound]", "measurement kind": "Dissolution for 30 min", "numeric readout": 3}

The following molecules each have a reported value; give each one's Dissolution for 30 min.
1. CCCCC1(C)c2cc(N(C)c3ccccc3)ccc2-c2c1c1c(c3cc(OC)c(OC)cc23)OC(c2ccc(OC)cc2)(c2ccc(OCCC)cc2)C=C1 (stereo not drawn)
2. CCCCCCC1(CCCC)c2cc(OC)ccc2-c2c1c1c(c3cc(OC)c(Sc4c(C)cccc4C)cc23)OC(c2ccc(OC)cc2)(c2ccc(N3CCOCC3)cc2)C=C1 (stereo not drawn)
3. COc1ccc(C2(c3ccc(N4CCOCC4)cc3)C=Cc3c4c(c5cc(-c6ccc(N7CCOCC7)cc6)c(OC)cc5c3O2)-c2ccc(C)cc2C4(C)C)cc1 (stereo not drawn) [Formula (G), reference compound]
4. CCC(C)C1(CC)c2cc(OC)ccc2-c2c1c1c(c3cc(OC)ccc23)OC(c2ccc(OC)cc2)(c2ccc(N3CCOCC3)cc2)C=C1 (stereo not drawn)
5. CCCC1(CC)c2ccccc2-c2c1c1c(c3cc(OC)c(-c4c(OC)cc(OC)cc4OC)cc23)OC(c2ccc(OC)cc2)(c2ccc(N(c3ccccc3)c3ccccc3)cc2)C=C1 (stereo not drawn)

1. 3
2. 2
3. 3
4. 1
5. 2

====

test: Solubility of photochromic compound in polymerizable compounds; assay type: physicochemical; parameters: key: 1: No haze is seen when checked under transmission of light, and the sample is completely dissolved.; 2: A very thin haze is seen to the extent that it can be seen under transmission of light.; 3: A thin haze that can be seen under transmission of light is seen.; 4: A haze can be seen even without transmission of light; conditions: 35 µmol/g in radical polymerizable compound composition of Example 21, 65 to 70°C, stirring and ultrasonic irradiation
measurement kind: Dissolution for 15 min
Numbers only.

The following molecules each have a reported value; give each one's Dissolution for 15 min.
1. COc1ccc(C2(c3ccc(N(c4ccccc4)c4ccccc4)cc3)C=Cc3c4c(c5cc(-c6c(OC)cc(OC)cc6OC)c(OC)cc5c3O2)-c2ccccc2C4(C)C)cc1 (centres unmarked) [Formula (L), reference compound]
2. CCCC1(CC)c2cc(OC)ccc2-c2c1c1c(c3cc(OC)ccc23)OC(c2ccc(OC)cc2)(c2ccc(N3CCOCC3)cc2)C=C1 (centres unmarked)
3. CCCCC1(CC)c2cc(N(C)c3ccccc3)ccc2-c2c1c1c(c3cc(OC)c(OC)cc23)OC(c2ccc(OC)cc2)(c2ccc(OCCC)cc2)C=C1 (centres unmarked)
4. COc1ccc(C2(c3ccc(N4CCOCC4)cc3)C=Cc3c4c(c5cc(Sc6c(C)cccc6C)c(OC)cc5c3O2)-c2ccc(OC)cc2C4(C)C)cc1 (centres unmarked) [Formula (K), reference compound]
5. COc1ccc(C2(c3ccc(OC)cc3)C=Cc3c4c(c5cc(N6CCOCC6)c(OC)cc5c3O2)-c2ccccc2C42CCCCCCC2)cc1 [Formula (D), reference compound]

[4, 4, 3, 4, 4]

====

experiment: Solubility of photochromic compound in polymerizable compounds; assay type: physicochemical; design: key: 1: No haze is seen when checked under transmission of light, and the sample is completely dissolved.; 2: A very thin haze is seen to the extent that it can be seen under transmission of light.; 3: A thin haze that can be seen under transmission of light is seen.; 4: A haze can be seen even without transmission of light; conditions: 35 µmol/g in radical polymerizable compound composition of Example 21, 65 to 70°C, stirring and ultrasonic irradiation
measurement kind: Dissolution for 15 min
Answers are plain numbers.

Some solved cases for reference:
{"compound": "CCCCC1(C)c2cc(N(C)c3ccccc3)ccc2-c2c1c1c(c3cc(OC)c(OC)cc23)OC(c2ccc(OC)cc2)(c2ccc(OCCC)cc2)C=C1 (stereo not drawn)", "Dissolution for 15 min": 3}
{"compound": "CCC1(C)c2cc(OC)ccc2-c2c1c1c(c3cc(OC)c(Sc4c(C)cccc4C)cc23)OC(c2ccc(OC)cc2)(c2ccc(N3CCOCC3)cc2)C=C1 (stereo not drawn)", "Dissolution for 15 min": 4}

Continue with the compound presented below.
So what does the record say about Dissolution for 15 min for COc1ccc(C2(c3ccc(OC)cc3)C=Cc3c4c(c5cc(N6CCOCC6)c(OC)cc5c3O2)-c2ccccc2C4(C)C)cc1 [Formula (A), reference compound] ? 4

====

Field: Dissolution for 15 min. Provide a value for each of the compounds that follow.
experiment: Solubility of photochromic compound in polymerizable compounds; format: physicochemical; parameters: key: 1: No haze is seen when checked under transmission of light, and the sample is completely dissolved.; 2: A very thin haze is seen to the extent that it can be seen under transmission of light.; 3: A thin haze that can be seen under transmission of light is seen.; 4: A haze can be seen even without transmission of light; conditions: 35 µmol/g in radical polymerizable compound composition of Example 21, 65 to 70°C, stirring and ultrasonic irradiation
Answers are plain numbers.

{"compound": "CCCC1(CC)c2ccccc2-c2c1c1c(c3cc(OC)c(-c4c(OC)cc(OC)cc4OC)cc23)OC(c2ccc(OC)cc2)(c2ccc(N(c3ccccc3)c3ccccc3)cc2)C=C1 (stereo not drawn) [Formula (78-2)]", "numeric readout": 3}
{"compound": "CCCC1(CC)c2cc(C)ccc2-c2c1c1c(c3cc(OC)c(-c4ccc(N5CCOCC5)cc4)cc23)OC(c2ccc(OC)cc2)(c2ccc(N3CCOCC3)cc2)C=C1 (stereo not drawn) [Formula (79-2)]", "numeric readout": 3}

Continue with the compound presented below.
So what does the record say about Dissolution for 15 min for COc1ccc(C2(c3ccc(N4CCOCC4)cc3)C=Cc3c4c(c5cc(-c6ccc(N7CCOCC7)cc6)c(OC)cc5c3O2)-c2ccc(C)cc2C4(C)C)cc1 (stereo not drawn) [Formula (G), reference compound] ? 4
